target: human P2X4 (Homo sapiens); assay: Human P2X4 HEK Cell FLIPR Assay; details: HEK293 stably expressing human P2X4; agonist Bz-ATP 3 μM (EC80); read-out: Human P2X4 HEK Cells (FLIPR Assay) avg IC50
Sequence (Q99571 whole entry): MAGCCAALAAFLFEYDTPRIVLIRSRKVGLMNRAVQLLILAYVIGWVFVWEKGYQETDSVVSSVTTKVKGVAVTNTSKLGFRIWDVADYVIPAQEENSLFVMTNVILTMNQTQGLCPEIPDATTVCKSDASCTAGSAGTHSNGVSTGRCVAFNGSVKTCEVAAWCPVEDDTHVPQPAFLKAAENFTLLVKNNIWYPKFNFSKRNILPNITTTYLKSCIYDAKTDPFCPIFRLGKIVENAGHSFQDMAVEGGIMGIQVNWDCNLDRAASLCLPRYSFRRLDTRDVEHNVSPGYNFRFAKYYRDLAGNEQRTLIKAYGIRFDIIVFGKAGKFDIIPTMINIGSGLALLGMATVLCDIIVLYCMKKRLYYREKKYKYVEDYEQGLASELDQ
Consider the following compounds; for each one, report its pIC50.
Just the number, please; pIC50 means minus log10 of the concentration in mol/L.

Name the reported pIC50 value associated with the compound "CC(=O)N(c1ccc(OC(F)F)cc1)c1cc(NC(=O)Cc2c(Cl)cccc2Cl)ccn1"
6.28

Name the reported pIC50 value associated with the compound "CC(=O)N(c1cccc(Cl)c1)c1cc(NC(=O)Cc2cccc(F)c2Cl)ccn1"
6.71

Name the reported pIC50 value associated with the compound "CCCC(=O)N(c1ccc(F)cc1)c1cc(NC(=O)Cc2ccccc2Cl)ccn1"
6.14

Name the reported pIC50 value associated with the compound "CC(=O)N(c1ccc(C)c(Cl)c1)c1cc(NC(=O)Cc2c(Cl)cccc2Cl)ccn1"
6.23

Name the reported pIC50 value associated with the compound "CC(=O)N(c1ccc(S(C)(=O)=O)c(Cl)c1)c1cc(NC(=O)Cc2ccc(F)cc2Cl)ccn1"
6.02

Name the reported pIC50 value associated with the compound "CC(=O)N(c1cc(NC(=O)Cc2cccc(C(F)(F)F)c2Cl)ccn1)c1ccccc1Cl"
6.11

Name the reported pIC50 value associated with the compound "CC(=O)N(c1ccc(F)cc1)c1cc(NC(=O)Cc2cccc(C)c2C)ccn1"
6.41

Name the reported pIC50 value associated with the compound "CC(=O)N(c1cccc(C(F)F)c1)c1cc(NC(=O)Cc2c(Cl)cccc2Cl)ccn1"
6.41

Name the reported pIC50 value associated with the compound "CC(=O)N(c1cc(F)cc(F)c1)c1cc(NC(=O)Cc2ccc(F)cc2Cl)ccn1"
6.50

Name the reported pIC50 value associated with the compound "CC(=O)N(c1cccc(Cl)c1)c1cc(NC(=O)Cc2c(Cl)cccc2Cl)ccn1"
6.30

Name the reported pIC50 value associated with the compound "CC(=O)N(c1cc(F)cc(Cl)c1)c1cc(NC(=O)Cc2ccccc2Cl)ccn1"
6.51

Name the reported pIC50 value associated with the compound "CC(=O)N(c1cc(F)cc(F)c1)c1cc(NC(=O)Cc2ccc(F)cc2Cl)cnn1"
6.32

Name the reported pIC50 value associated with the compound "CC(=O)N(c1ccc(F)c(F)c1)c1cc(NC(=O)Cc2c(F)cccc2Cl)cnn1"
6.13

Name the reported pIC50 value associated with the compound "CC(=O)N(c1ccc(F)c(F)c1)c1cc(NC(=O)Cc2c(Cl)cc(C)cc2Cl)ccn1"
6.23

Name the reported pIC50 value associated with the compound "COc1c(F)cc(N(C(C)=O)c2cc(NC(=O)Cc3ccccc3Cl)ccn2)cc1F"
6.44

Name the reported pIC50 value associated with the compound "CC(=O)N(c1ccc(F)c(Cl)c1)c1cc(NC(=O)Cc2cccc(F)c2Cl)ccn1"
6.45

Name the reported pIC50 value associated with the compound "CC(=O)N(c1ccc(C)cc1)c1cc(NC(=O)Cc2cccc(F)c2Cl)ccn1"
6.31

Name the reported pIC50 value associated with the compound "CC(=O)N(c1cc(NC(=O)Cc2c(Cl)cccc2Cl)ccn1)c1ccc(C)cc1C"
6.28

Name the reported pIC50 value associated with the compound "CC(=O)N(c1cccc(C#N)c1)c1cc(NC(=O)Cc2c(Cl)cccc2Cl)ccn1"
6.61

Name the reported pIC50 value associated with the compound "CC(=O)N(c1cccc(C(F)(F)F)c1)c1cc(NC(=O)Cc2c(Cl)cccc2Cl)ccn1"
6.13

Name the reported pIC50 value associated with the compound "CC(=O)N(c1cc(NC(=O)Cc2c(Cl)cccc2Cl)ccn1)c1ccc(C(F)(F)F)cc1F"
6.06

Name the reported pIC50 value associated with the compound "CC(=O)N(c1cc(NC(=O)Cc2c(Cl)cccc2Cl)ccn1)c1ccccc1F"
6.26

Name the reported pIC50 value associated with the compound "CC(=O)N(c1ccccc1)c1cc(NC(=O)Cc2ccccc2Cl)cnn1"
6.15

Name the reported pIC50 value associated with the compound "CC(=O)N(c1ccc(F)c(Cl)c1)c1cc(NC(=O)Cc2c(Cl)cccc2Cl)ccn1"
6.34

Name the reported pIC50 value associated with the compound "CCCC(=O)N(c1ccc(F)cc1)c1cc(NC(=O)Cc2c(Cl)cccc2Cl)ccn1"
6.19

Name the reported pIC50 value associated with the compound "CC(=O)N(c1ccc(F)c(F)c1)c1cc(NC(=O)Cc2ccccc2C(F)(F)F)ccn1"
6.37

Name the reported pIC50 value associated with the compound "CC(=O)N(c1ccc(F)c(F)c1)c1cc(NC(=O)Cc2c(C)cccc2C)ccn1"
6.52

Name the reported pIC50 value associated with the compound "CC(=O)N(c1cc(NC(=O)Cc2ccccc2Cl)ccn1)c1ccccc1F"
6.41

Name the reported pIC50 value associated with the compound "CC(=O)N(c1ccc(Cl)c(C#N)c1)c1cc(NC(=O)Cc2ccccc2Cl)ccn1"
6.41

Name the reported pIC50 value associated with the compound "CC(=O)N(c1ccc(F)c(F)c1)c1cc(NC(=O)Cc2c(C)cc(Cl)cc2Cl)ccn1"
6.08

Name the reported pIC50 value associated with the compound "CC(=O)N(c1ccc(F)c(C#N)c1)c1cc(NC(=O)Cc2ccccc2Cl)ccn1"
6.46

Name the reported pIC50 value associated with the compound "CC(=O)N(c1ccc(F)c(C#N)c1)c1cc(NC(=O)Cc2cccc(F)c2Cl)ccn1"
6.45

Name the reported pIC50 value associated with the compound "CC(=O)N(c1cc(NC(=O)Cc2c(Cl)cccc2Cl)ccn1)c1cccc(F)c1F"
6.24

Where these numbers come from: patent US20230257351A1
